test system: leukemia tumour line L 1210; assay: In vitro cytotoxic activity on leukemia tumour line L 1210; format: cell-based; conditions: Mus musculus, L1210, 48 h, L 1210, 48 hours contact, 37° C.; read-out: I D 50 (concentration which inhibits the proliferation of the cells by 50%)
Counter-ions that a name gives are not always drawn.
Collected log10 IC50 values appear next to each entry.
Hello, just confirming the data are log10 of IC50 with units of nM.

* Cc1cnc(NCCCN(C)C)c2c3cc(O)ccc3n(C)c12 | 1.15
* Cc1cnc(NCC(C)CN(C)C)c2c3cc(O)ccc3n(C)c12 (racemic) | 1.00
* CCN(CC)CCCCNc1ncc(C)c2c1c1cc(OC)ccc1n2C | 3.11
* CCNCCCNc1ncc(C)c2[nH]c3ccc(OC)cc3c12 | 3.08
* COc1ccc2c(c1)c1c(NCCCN(C)C)ncc(C)c1n2C.Cl.Cl [Derivative No. 13, dihydrochloride] | 2.11
* Cc1cnc(NCCCN(C)C)c2c1[nH]c1ccccc12 | 2.20

Field log10 IC50 (entry Cc1cnc(NCCNCCO)c2c1[nH]c1ccccc12 ) reads 3.06

Field log10 IC50 (entry Cc1cnc(NCCCN(C)C)c2c1[nH]c1ccc(O)cc12 ) reads 1.95

Field log10 IC50 (entry CCN(CC)CCCNc1ncc(C)c2c1c1ccccc1n2C [Derivative No. 16, dihydrochloride] ) reads 2.86

Field log10 IC50 (entry CCN(CC)CCNc1ncc(C)c2c1c1cc(O)ccc1n2C.Cl.Cl [Derivative No. 19, dihydrochloride] ) reads 2.18

Field log10 IC50 (entry Cc1cnc(NCCCN(C)C)c2c3ccccc3n(C)c12.Cl.Cl [Derivative No. 17, dihydrochloride] ) reads 2.54

Field log10 IC50 (entry CCN(CC)CCCNc1ncc(C)c2[nH]c3ccc(OC)cc3c12 ) reads 2.48

Field log10 IC50 (entry CCN(CC)CCCNc1ncc(C)c2[nH]c3ccccc3c12 ) reads 2.30

Field log10 IC50 (entry CCN(CC)CCCNc1ncc(C)c2c1c1cc(O)ccc1n2C ) reads 1.48

Field log10 IC50 (entry COc1ccc2c(c1)c1c(NCC(C)CN(C)C)ncc(C)c1n2C (racemic) [Derivative No. 20, dihydrochloride] ) reads 3.00

Field log10 IC50 (entry CCN(CC)CCCNc1ncc(C)c2[nH]c3ccc(O)cc3c12 ) reads 1.78

====

Tested on: leukemia P 388
Assay: Test of leukemia P 388; IP/IP, D1-5
Assay type: in vivo, CDF1 hybrid mice
Settings: 20 mg/kg IP, D1-D5
Method: (2) In vivo: (GERAN et al., Cancer Chemother., 1972, 2, 07-57): The antitumour activity was tested in vivo on various tumours inoculated in various ways according to the following general protocol: All the male or female mice are inoculated on day D0 with a known quantity of viable tumour cells for ascitic tumours or with a known tumour fragment for solid tumours. […] "Average weight of the group measured on day 5--Average weight of the same group measured on day 1" […]
Collected Variation by weight values appear next to each entry.
Return type: number; implicit unit g.

Completed entries (count: 4):
* CCN(CC)CCCNc1ncc(C)c2c1c1cc(O)ccc1n2C [Derivative No. 11] | -2.8
* CCN(CC)CCCNc1ncc(C)c2[nH]c3ccc(OC)cc3c12 | -0.9
* CCN(CC)CCCNc1ncc(C)c2[nH]c3ccc(O)cc3c12 | -1.1
* Cc1cnc(NCCCN(C)C)c2c1[nH]c1ccc(O)cc12 | -0.4

Field Variation by weight (entry CCN(CC)CCCNc1ncc(C)c2c1c1cc(O)ccc1n2C [Derivative No. 12] ) reads -5.9

Field Variation by weight (entry Cc1cnc(NCCCN(C)C)c2c3cc(O)ccc3n(C)c12 ) reads -4.4
